Provenance of the data: patent US20240059799A1

system.tested: T1, recombinant human TL1A (human, UniProt O95150 71-251)
T1 construct: The ELISA method says only 'recombinant TL1A' coated on plates; homotrimeric cytokine; also called TNFSF15; recombinant TL1A
T1 chain: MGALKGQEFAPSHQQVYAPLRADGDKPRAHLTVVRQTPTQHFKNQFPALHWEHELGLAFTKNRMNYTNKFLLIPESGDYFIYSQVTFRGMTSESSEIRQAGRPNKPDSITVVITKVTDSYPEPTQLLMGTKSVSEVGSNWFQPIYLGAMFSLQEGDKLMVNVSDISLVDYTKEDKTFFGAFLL
method.description: competition ELISA on coated recombinant TL1A; competitor biotinylated TL1A-0002
Recorded measurements of Bioactivity relative to TL1A-0002, one per entry
Give the quantity in fold, number only.

Query: Note down Bioactivity relative to TL1A-0002 recorded for TL1A-0263 (antibody, human IgG1, kappa, V domains shown, human IgG1 effector-function-minimized / human kappa) VH: QVQLVQSGAEVKKPGASVKVSCKASGYDYTYYGISWVRQAPGQGLEWMGWISTYNTGTHYAQKLQGRVTMTTDTSTSTAYMELRSLRSDDTAVYYCARESYYGSGAHRGGMDVWGQGTTVTVSS VL: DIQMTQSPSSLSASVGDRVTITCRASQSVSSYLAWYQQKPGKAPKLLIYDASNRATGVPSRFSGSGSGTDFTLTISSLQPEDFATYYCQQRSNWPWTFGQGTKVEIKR
Response: 1.2

Query: Note down Bioactivity relative to TL1A-0002 recorded for TL1A-0254 (antibody, V domains shown, IgG1 effector-minimized/kappa) VH: QVQLVQSGAEVKKPGASVKVSCKASGYDFTYYGISWVRQAPGQGLEWMGWISTYGGNTHYAPSLQGRVTMTTDTSTSTAYMELRSLRSDDTAVYYCARESYYGSGAFRGGMDVWGQGTTVTVSS VL: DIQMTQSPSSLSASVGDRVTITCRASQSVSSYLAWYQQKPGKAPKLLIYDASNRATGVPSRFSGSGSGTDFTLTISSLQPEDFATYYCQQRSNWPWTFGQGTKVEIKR
Response: 9.2

Query: Note down Bioactivity relative to TL1A-0002 recorded for TL1A-0272 (antibody, human IgG1, kappa, V domains shown, human IgG1 effector-function-minimized / human kappa) VH: QVQLVQSGAEVKKPGASVKVSCKASGYDFSYYGISWVRQAPGQGLEWMGWISTYNDNTHYAQKLQGRVTMTTDTSTSTAYMELRSLRSDDTAVYYCARESYYGSGAFRGGMDVWGQGTTVTVSS VL: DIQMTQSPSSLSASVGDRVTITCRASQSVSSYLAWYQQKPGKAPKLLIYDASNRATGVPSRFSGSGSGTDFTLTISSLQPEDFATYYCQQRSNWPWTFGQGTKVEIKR
Response: 2.3
